Would you mind telling me the reported IC50 of each entry?
target: Mitogen-activated protein kinase kinase kinase 14 (Homo sapiens, UniProt Q99558); test: Inhibition of recombinant N-terminal GST-fused human NIK (319 to 947 residues) expressed in baculovirus expression system incubated for 120 mins in presence of ATP by ADP-glo based luminescence assay
Sequence (Q99558 whole entry, the tested form may be a part): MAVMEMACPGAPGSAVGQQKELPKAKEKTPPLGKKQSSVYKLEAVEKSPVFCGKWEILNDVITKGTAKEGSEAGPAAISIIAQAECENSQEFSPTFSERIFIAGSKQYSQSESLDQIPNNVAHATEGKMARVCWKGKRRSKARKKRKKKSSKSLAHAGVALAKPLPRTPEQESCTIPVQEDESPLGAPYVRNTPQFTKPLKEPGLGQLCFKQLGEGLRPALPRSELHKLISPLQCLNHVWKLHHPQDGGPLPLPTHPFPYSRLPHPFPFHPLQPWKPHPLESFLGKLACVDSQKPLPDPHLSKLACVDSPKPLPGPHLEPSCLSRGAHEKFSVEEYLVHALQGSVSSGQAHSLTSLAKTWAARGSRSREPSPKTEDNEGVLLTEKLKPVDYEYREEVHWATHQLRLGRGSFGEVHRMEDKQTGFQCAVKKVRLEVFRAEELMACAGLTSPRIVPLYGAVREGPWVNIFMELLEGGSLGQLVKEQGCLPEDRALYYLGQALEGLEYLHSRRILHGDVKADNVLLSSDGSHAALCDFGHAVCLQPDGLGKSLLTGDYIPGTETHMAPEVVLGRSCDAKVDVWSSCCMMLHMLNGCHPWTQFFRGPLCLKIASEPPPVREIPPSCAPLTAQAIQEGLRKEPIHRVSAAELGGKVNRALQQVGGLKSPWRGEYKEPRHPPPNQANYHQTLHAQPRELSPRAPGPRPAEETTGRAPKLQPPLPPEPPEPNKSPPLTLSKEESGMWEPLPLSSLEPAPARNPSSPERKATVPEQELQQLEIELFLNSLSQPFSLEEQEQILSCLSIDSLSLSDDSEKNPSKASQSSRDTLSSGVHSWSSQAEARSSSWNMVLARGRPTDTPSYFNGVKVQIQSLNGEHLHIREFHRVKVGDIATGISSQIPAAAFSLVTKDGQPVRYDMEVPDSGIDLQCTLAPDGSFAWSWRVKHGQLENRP
Answers are plain numbers, in nM.

Consider the reported IC50 for these compounds:
| COMPOUND | RESULT UNITS | IC50 |
| --- | --- | --- |
| CN(C)c1ccc(C#CC(C)(O)c2nccs2)cc1Nc1ncnc2[nH]ccc12 (stereo unspecified) | nM | 22.5 |
| C[C@H]1CN(c2ccc(C#CC(C)(O)c3nccs3)cc2Nc2ncnc3[nH]ccc23)CCN1 (stereo partly specified) | nM | 69.2 |

// for each compound below, give its IC50
1. CC(O)(C(=O)Nc1ccc(N2CCOCC2)c(Nc2ncnc3[nH]ccc23)c1)c1nccs1 (stereo unspecified)
2. C[C@](O)(C#Cc1ccc(N2CCOCC2)c(Nc2ncnc3[nH]ccc23)c1)c1nccs1
3. CC(C)(O)C#Cc1ccc(N2CCOCC2)c(Nc2ncnc3[nH]ccc23)c1
4. CC(O)(C#Cc1ccc(N2CC3CC2CN3)c(Nc2ncnc3[nH]ccc23)c1)c1nccs1 (stereo unspecified)

Solution:
1400
136
2710
200

###

biological target: Mitogen-activated protein kinase kinase kinase 14 (Homo sapiens, UniProt Q99558); experiment: Inhibition of recombinant N-terminal GST-fused human NIK (319 to 947 residues) expressed in baculovirus expression system incubated for 120 mins in presence of ATP by ADP-glo based luminescence assay
READOUT KIND: pIC50
Numbers only, as −log10 of the molar value.

// for each compound below, give its pIC50
1. CC(O)(C#Cc1ccc(N2CCN(S(=O)(=O)C3CC3)CC2)c(Nc2ncnc3[nH]ccc23)c1)c1nccs1 (centres undefined)
2. CC(O)(C#Cc1ccc(N2CCOCC2)c(Nc2ncnc3sccc23)c1)c1nccs1 (centres undefined)

Solution:
[7.79, 6.75]

Problem: Recorded pIC50 of C[C@@H]1CN(c2ccc(C#CC(C)(O)c3nccs3)cc2Nc2ncnc3[nH]ccc23)CCN1 (some centres undefined) , please.
Solution: 6.68

###

test system: J774; test: Antiinflammatory activity in mouse J774 cells assessed as inhibition of LPS-induced NO production at 1 uM preincubated for 2 hrs followed by LPS stimulation and measured after 22 hrs by Griess reagent based assay relative to control; assay type: functional
Would you mind telling me the reported inhibition at 1 µM of each entry?
Give bare numbers, in %.

| MOLECULE | TEST SYSTEM | RESULT UNITS | inhibition at 1 µM |
| --- | --- | --- | --- |
| CC(O)(C#Cc1ccc(N2CCOCC2)c(Nc2ncnc3[nH]ccc23)c1)c1nccs1 (racemic) | J774 | % | 86.3 |

// for each molecule below, give its inhibition at 1 µM
1. COCCN(C)c1ccc(C#CC(C)(O)c2nccs2)cc1Nc1ncnc2[nH]ccc12 (stereo not drawn)
2. CC(O)(C#Cc1ccc(N2CCOCC2)c(Nc2ncnc3[nH]ncc23)c1)c1nccs1 (stereo not drawn)
3. CN1CCN(c2ccc(C#CC(C)(O)c3nccs3)cc2Nc2ncnc3[nH]ccc23)CC1 (stereo not drawn)
4. CCS(=O)(=O)N1CCN(c2ccc(C#CC(C)(O)c3nccs3)cc2Nc2ncnc3[nH]ccc23)CC1 (stereo not drawn)
5. CC(=O)N1CCN(c2ccc(C#CC(C)(O)c3nccs3)cc2Nc2ncnc3[nH]ccc23)CC1 (stereo not drawn)
6. CC(O)(C#Cc1ccc(N2CCOCC2)c(Nc2ccnc(N)n2)c1)c1nccs1 (stereo not drawn)
7. CC(O)(C#Cc1ccc(N2CCC(N3CCOCC3)CC2)c(Nc2ncnc3[nH]ccc23)c1)c1nccs1 (stereo not drawn)

Solution:
1. 48
2. 35.9
3. 78.5
4. 34.5
5. 29.3
6. 58.5
7. 57.7

// provenance: ChEMBL document CHEMBL4616671
